target.or.test.system: Cyclin-dependent kinase 7 (Homo sapiens, UniProt P50613)
Sequence (P50613 whole entry): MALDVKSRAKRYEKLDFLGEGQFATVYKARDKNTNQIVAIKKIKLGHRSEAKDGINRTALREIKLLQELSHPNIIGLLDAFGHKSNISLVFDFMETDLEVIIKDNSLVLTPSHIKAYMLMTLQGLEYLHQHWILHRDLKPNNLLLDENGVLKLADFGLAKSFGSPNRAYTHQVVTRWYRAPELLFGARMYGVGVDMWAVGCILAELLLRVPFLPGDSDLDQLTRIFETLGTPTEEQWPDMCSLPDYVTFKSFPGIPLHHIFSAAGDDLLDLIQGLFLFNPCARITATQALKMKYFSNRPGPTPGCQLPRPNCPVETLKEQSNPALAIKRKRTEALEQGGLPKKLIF
pKi: −log10 of the molar value.
Kind request: treat 7 as inclusive, so pKi at 7 or higher is 1, anything lower is 0.

Asked: Does Cc1ccc(Nc2nccc(-c3sc(=O)n(C)c3C)n2)cc1[N+](=O)[O-] have a reported pKi of at least 7?
Given back: 1

Asked: Lookup CCNS(=O)(=O)c1cccc(Nc2nccc(-c3sc(N)nc3C)n2)c1
Given back: 0

Asked: Can you check Cc1ccc(Nc2nccc(-c3sc(N)nc3C)n2)cc1S(=O)(=O)N1CCOCC1 next?
Given back: 0

Asked: Follow-up item: CNc1nc(C)c(-c2ccnc(Nc3cccc(S(N)(=O)=O)c3)n2)s1
Given back: 1

Asked: Another compound to look at: CNc1nc(C)c(-c2ccnc(Nc3ccc(C)c(S(=O)(=O)N4CCOCC4)c3)n2)s1
Given back: 0

Asked: Thanks! And CCNc1nc(C)c(-c2ccnc(Nc3cccc(S(N)(=O)=O)c3)n2)s1 ?
Given back: 1

Asked: Input Cc1c(-c2ccnc(Nc3ccc(N4CCNCC4)cc3)n2)sc(=O)n1C
Given back: 1
